- Target Desc: T1, lactate dehydrogenase (LDH)
- T1 construct: Coated at 500 ng/well as non-specific target; also called LDH polypeptide
- Protocol Details: phage ELISA
- Description: For analysis of individual target binders, colonies were picked and phage prepared as described above using helper phage, M13KO7. Ninety-six-well microtiter plates were coated with 500 ng/well of specific target protein, 500 ng/well lactate dehydrogenase (LDH) irrelevant or non-specific target, 500 ng/well of positive control antibody raised against ETAG, and negative control of non-fat milk powder-PBS 2% at 4° C. overnight. […] Plates were analyzed at 405 nm. […]
Readout Type: LDH (OD)
// return numeric value only (unit: OD, not printed)

The binder identified as VTGTRFRGFAVACVRMGTWHAAAGAPVPYPDPLEPRP [DGI-2-20F-PP-F2] registered its LDH (OD) at 1

The binder identified as KVWGCGARRGWERLGHLNQVAAAGAPVPYPDPLEPRP [DGI-2-20F-PP-B10] registered its LDH (OD) at 0.8

The binder identified as QLDCLVWGLPGLRCDRPLEQAAAGAPVPYPDPLEPRP [DGI-2-20R-3-B10] registered its LDH (OD) at 1

The binder identified as RSIRLQLIDEACQFFDGLCTAAAGAPVPYPDPLEPRP [DGI-2-20R-3-A8] registered its LDH (OD) at 1.1

The binder identified as VCGQRVARMQLNKTIRKLDSAAAGAPVPYPDPLEPRP [DGI-2-20F-PP-A6] registered its LDH (OD) at 1.1

The binder identified as CCAWNGVGVGGLGWRVVVGPAAAGAPVPYPDPLEPRP [DGI-2-20F-PP-H4] registered its LDH (OD) at 1

The binder identified as GRWDGWEVCGIWGADDCASGAAAGAPVPYPDPLEPRP [DGI-2-20R-4-H1] registered its LDH (OD) at 1.2

The binder identified as GSTRLRVTVRFCSETGTPGCAAAGAPVPYPDPLEPRP [DGI-2-20F-PP-G6] registered its LDH (OD) at 1.1

The binder identified as MFQDVACDLWHSVRCLRRDVAAAGAPVPYPDPLEPRP [DGI-2-20R-3-B3] registered its LDH (OD) at 1

The binder identified as DGI-2-40F-4-F122 (peptide) peptide: RSQVRVVSRERSTPVLHRIECLLFSGWCVTSGSDEGVVWGAAAGAPVPYPDPLEPRP registered its LDH (OD) at 0.8

The binder identified as GWGCSVPGILCVGGHRQGGGAAAGAPVPYPDPLEPRP [DGI-2-20R-3-B11] registered its LDH (OD) at 1

The binder identified as LWRRWSEGQLLGDGELRGDGAAAGAPVPYPDPLEPRP [DGI-2-20R-3-B52] registered its LDH (OD) at 1

The binder identified as VWAAWVEGSLLSPRQEPVRDAAAGAPVPYPDPLEPRP [DGI-2-20R-4-G4] registered its LDH (OD) at 1

The binder identified as RVSYEMLGRRRRSMHGSSMRAAAGAPVPYPDPLEPRP [DGI-2-20F-PP-A4] registered its LDH (OD) at 1.1

The binder identified as RPVVCLAGLTLAQFGWVFPGWRGWSAAAGAPVPYPDPLEPRP [DGI-2-20C-3-C1039] registered its LDH (OD) at 1

The binder identified as GASRVVDVGWRFWGKLWQRSAAAGAPVPYPDPLEPRP [DGI-2-20F-PP-G5] registered its LDH (OD) at 1.2

The binder identified as RRGVCEIFTGWCVGQTNERPAAAGAPVPYPDPLEPRP [DGI-2-20R-4-H626] registered its LDH (OD) at 1.1

The binder identified as VSFAHDWGRWWYQWEVGAAAGAPVPYPDPLEPRP [DGI-2-20R-4-G22] registered its LDH (OD) at 1.2

The binder identified as SLLCVVCRPVSGGRALGGVPAAAGAPVPYPDPLEPRP [DGI-2-20F-PP-B42] registered its LDH (OD) at 1

The binder identified as VHSQGRMWAIPGLRGGTGASAAAGAPVPYPDPLEPRP [DGI-2-20R-3-D7] registered its LDH (OD) at 1

The binder identified as DGI-2-40F-4-E62 (peptide) peptide: TCWHRGLNVVRYSVNFGVRDARLTTQGMAWFPPGCGQGCVAAAGAPVPYPDPLEPRP registered its LDH (OD) at 1

The binder identified as TFTRDVAGPAVSFVRLHSWNAAAGAPVPYPDPLEPRP [DGI-2-20F-PP-A9] registered its LDH (OD) at 1.2

The binder identified as WVVALRRIRLGLRRGVECLLAAAGAPVPYPDPLEPRP [DGI-2-20F-PP-D5] registered its LDH (OD) at 1.2

The binder identified as WAASCFWGHVALGCGRNGQGAAAGAPVPYPDPLEPRP [DGI-2-20R-3-A11] registered its LDH (OD) at 1.1

The binder identified as GLYQRGLAPRCRGERFGVRNAAAGAPVPYPDPLEPRP [DGI-2-20F-PP-C2] registered its LDH (OD) at 1.1
